Target: Proprotein convertase subtilisin/kexin type 6 (Homo sapiens, UniProt P29122)
Sequence (P29122 whole entry): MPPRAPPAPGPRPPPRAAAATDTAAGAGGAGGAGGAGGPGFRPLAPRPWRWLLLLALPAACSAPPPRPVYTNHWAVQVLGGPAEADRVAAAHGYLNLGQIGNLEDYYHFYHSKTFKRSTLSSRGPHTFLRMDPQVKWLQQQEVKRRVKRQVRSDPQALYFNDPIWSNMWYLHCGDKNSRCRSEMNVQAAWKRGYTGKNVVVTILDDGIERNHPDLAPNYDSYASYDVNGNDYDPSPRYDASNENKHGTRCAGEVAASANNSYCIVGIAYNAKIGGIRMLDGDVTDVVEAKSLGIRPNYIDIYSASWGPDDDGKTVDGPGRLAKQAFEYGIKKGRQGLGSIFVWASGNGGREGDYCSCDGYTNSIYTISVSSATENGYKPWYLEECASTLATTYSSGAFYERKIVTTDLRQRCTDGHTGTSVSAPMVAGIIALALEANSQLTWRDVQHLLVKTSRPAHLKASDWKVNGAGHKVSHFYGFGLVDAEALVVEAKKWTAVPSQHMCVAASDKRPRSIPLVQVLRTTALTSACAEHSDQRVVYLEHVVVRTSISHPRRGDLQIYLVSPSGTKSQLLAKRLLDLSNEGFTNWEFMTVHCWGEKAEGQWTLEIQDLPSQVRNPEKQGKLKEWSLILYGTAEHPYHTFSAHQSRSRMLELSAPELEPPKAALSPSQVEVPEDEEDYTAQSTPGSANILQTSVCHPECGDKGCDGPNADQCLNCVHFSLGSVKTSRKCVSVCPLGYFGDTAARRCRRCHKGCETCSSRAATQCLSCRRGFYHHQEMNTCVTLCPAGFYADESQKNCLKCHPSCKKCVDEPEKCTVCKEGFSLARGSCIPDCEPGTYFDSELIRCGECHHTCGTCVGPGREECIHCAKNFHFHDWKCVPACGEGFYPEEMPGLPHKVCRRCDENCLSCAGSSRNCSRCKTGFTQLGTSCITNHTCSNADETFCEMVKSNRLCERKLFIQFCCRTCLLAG
Assay: Inhibition of recombinant human PACE4 expressed in drosophila S2 cells using pyrGlu-Arg-Thr-Lys-Arg-7-amido-4-methylcoumarin as substrate after 60 mins by spectrofluorometry method
Peptide text beside a SMILES is read from it. * marks the point of attachment. NH(4-amidinobenzyl) = N=C(N)c1ccc(CN*)cc1
Test Readout: Ki (nM)
Your answer should be a plain number; it is taken to be in nM.

Entry CC(=O)N[C@@H](CC(C)C)C(=O)N[C@@H](CC(C)C)C(=O)N[C@@H](CCCCN)C(=O)N[C@@H](CC(C)C)C(=O)N[C@@H](CCCNC(=N)N)C(=O)N[C@H](C(=O)N[C@@H](CCCCN)C(=O)NCc1ccc(C(=N)N)cc1)C(C)C (Ac-LLKLRVK-{NH(4-amidinobenzyl)}) has what Ki?
2.2

Would you mind telling me what Ki value was observed for CC(=O)N[C@@H](C)C(=O)N[C@@H](CC(C)C)C(=O)N[C@@H](CC(C)C)C(=O)N[C@@H](CC(C)C)C(=O)N[C@@H](CCCNC(=N)N)C(=O)N[C@H](C(=O)N[C@@H](CCCCN)C(=O)NCc1ccc(C(=N)N)cc1)C(C)C (Ac-ALLLRVK-{NH(4-amidinobenzyl)}) ?
1.5

Give its Ki value. Item: CSCC[C@H](NC(=O)[C@H](CC(C)C)NC(C)=O)C(=O)N[C@@H](CC(C)C)C(=O)N[C@@H](CC(C)C)C(=O)N[C@@H](CCCNC(=N)N)C(=O)N[C@H](C(=O)N[C@@H](CCCCN)C(=O)NCc1ccc(C(=N)N)cc1)C(C)C (Ac-LMLLRVK-{NH(4-amidinobenzyl)})
5

Item CC(=O)N[C@@H](CC(C)C)C(=O)N[C@@H](CC(C)C)C(=O)N[C@@H](CC(C)C)C(=O)N1CCC[C@H]1C(=O)N[C@@H](CCCNC(=N)N)C(=O)N[C@H](C(=O)N[C@@H](CCCCN)C(=O)NCc1ccc(C(=N)N)cc1)C(C)C (Ac-LLLPRVK-{NH(4-amidinobenzyl)}) has what recorded Ki?
6
